Test: yeast display, Sf9 membrane polyspecificity reagent, FACS + sequencing; frameworks hold sequencing errors
parameter: polyreactivity (PSR sort gate)

Answered examples (5):
QVQLVDSGGGLVQAGGSLRLSCAASGITFYYYAMGRYIQAPGKERELVAAISWSGGSTYYADSVKGRFTISRDNAKNTVYLPMNSLIPEDTAVYYCAATPYQYHDGGYWGQGTQVTVSS :: high polyreactivity
QVQLVESGGGLVQAGGSLRLSCAASGRTFKPYGMGWYRQAPGKERELVAAISSRGDITYYADSVKGRFTISRDNAKNTVYLQMNSLKPEDTAVYYCNADLYRKRAWVRRDGSWGQGTQVTVSS :: low polyreactivity
QVQLVESGGGLVQAGGSLRLSCAASGSTFGYYAMGWSRQAPGKERELVAAIRWSGGSTYADSVKGRFTISRDNAKNTVYLQMNSLKPEDTAVYYCAQYRWYGSVLGGYWGQGTQVTVSS :: high polyreactivity
QVQLVESGGGLVQAGGSLRFSSPASGLTFGTYAMGWYRQAPGKERELVAAISTSGVRTYYADSVKGRFTISRDIAKNTVYLQMNSLKPEDTAVYYCAARYNRAYSRDYWGQGSQVTVSS :: high polyreactivity
QVQLVESGGGVVQAGGSLRLSCAASGRIFARYTMGWYRQAPGKEREFVAGIRSSGGRTYYADSVKGRFTISRDTAKNTVYLQMNSLKPEDSAVYYCNAGGSWYFARYDYWGEGTQVTVSS :: low polyreactivity

Requested read-out: polyreactivity (PSR sort gate). Entry: `QVQLVESGGGLVQAGGSLRLSCAASGFIFTPYAMGWYRQAPGKERELVAAITWRGARTYYADSVKGRFTISRDIAKNSVYLQMNSLKPEDTAVYYCAALSRRSYAPRDDYWGQGTQVTVSS`
high polyreactivity

Bench note: what polyreactivity (PSR sort gate) did `QVQLVESGGGLVQAGGSLRLSCAASGSIFKTNAMGWYRQAPGKERELVAAIRASGGSTYYADSVKGRFTISRDNAKNTVYLQMNSLKPEDTAVYYCAARYWFKYYWGQGTQVTVSS` show?
high polyreactivity

Need polyreactivity (PSR sort gate) of `QVQLVESGRGLVQAGGILRLSCDASGRTIYFNRMGWYRHAPGKEREFVAAINRSGGSTYYADSVKGRFTISRDNAKNTVYLQMNSLKPEDTAVYYCAADGVIFEYDYWGQGTQVTVSS` , thanks.
low polyreactivity

// lookup polyreactivity (PSR sort gate) for `QVQLVESGGGIVQAAGSLRLSCAASGFTIYYYAMVWYRQAPGKERELVASITSGGSTYYADSVKGRFTISRDNAKNTVYLQMNSLKPEDTAVYYCAITRFHSKEGVYWGQGTQVTVSS`
low polyreactivity

Query (sequence): `QVQLVESGGGLVQAGGSLRLSCAASGSIFDAYAMGWYRQAPGKERELVAAISSGGNTNYADSVKGRFTISRDNAKNTVDLQMNSLKPEDTAVYYCAADFTHPDGLPGFDYWGQGTQVTVSS` ; field requested: polyreactivity (PSR sort gate)
low polyreactivity

Data request, read-out polyreactivity (PSR sort gate), for `QVQLVESGGGLVQAGGSHRLSCAASGSTLGDYAMGWYRQAPGKERELVAAISNGVSTNYADSVKGRFTISRDNAKNTVYLQKNSLKPVDTAVYYCNAGSGWGSLLEYDYWGQGTKVTVSS`
low polyreactivity

Returns the measured polyreactivity (PSR sort gate) for the input sequence. Input: `QVQLVESGGGLVQAGGSLRLSCAASGSIFRYYAMGWYRQAPGKERELVAVITRGGSTYYADSVKGRFTISRDNAKNTVYLQMNSLKPEDTAVYYCAADYWPACMDRGYWGQATQVTVSS`
low polyreactivity

// lookup polyreactivity (PSR sort gate) for `QVQLVESGGGLVQAGGSLRLSCAASGLIFYWYAMGWYRQAPGKEREFVAAISYGGTTTSYADSVKGRFTISRDNAKNTVYLQMNSLKPEDTAVYYCAAEESTSSWSINDYWGQGTQVTVSS`
low polyreactivity

* * *

Assay: yeast display, Sf9 membrane polyspecificity reagent, FACS + sequencing; frameworks hold sequencing errors
parameter: polyreactivity (PSR sort gate)

QVQHVESGGGLVQAGGSLRLSCAASGSTSGKYAMGWYRQAPGKERELVAGITKGGGGTYYADSVKGRFTISRDNAKNTVYLQLNSLKPEVTAVYYCAKYYGSGYYIYDYWGQGTQVTVSS :: low polyreactivity
QVQLVESGGGIVQAGGSLRLSCAASGLTFWPYAMGWYRQARGKERELVAAISYNSGRTYYADSVKGRFTISRDNAKNTVYLQMNSLKPEDTEVYYCAVEWSLSRYYYWGQGTQVTVSS :: high polyreactivity
QVQLVESGGGLVQAGVSLRLSCAASGRIFRFYAMGWYRQAPGIDRELVATISRSGGSTYYADSVKGRFTISRDNAKNNAYLQMNSLKPEDTAVYYCAAQRLHDGDYWVQGTQVTVSS :: high polyreactivity
QVQLVESGGGLVQAGGSLRLSCAASGRTFRSYAMGWYRQAPGKERELVAGITTSGGSTYYADSVKGRFTISRDNAKNTVYLQMNSLKPEDTAVYYCNARSWYSFHPHDYWGQGTQVTVSS :: high polyreactivity
QVQLVESGGGLVQAGGSLRLSCAASGSTFWIYAMGWYRQAPGKERELVAAINWSGGNTYYADSVKGRFTISRDNAKNTVYLQMNSLKPEDTAVYYCAAAFYIYGVEGDYWGQGTQVTVSS :: low polyreactivity

Tell me the measured polyreactivity (PSR sort gate) of `QVQLVESGGGLVQAGGSLRLSSAASGFTFAYYAMGWYRQAPGKERELVAAITRGGGRTFYADSVKGRFTISRDNAKNTVYLQMNSLKPEDTAVYYCAAVKDTTNSRGYGYWGQGTQVTVSS` , please.
high polyreactivity

Report polyreactivity (PSR sort gate) for `QVQLVESGGGLVQAGGSLRLSCAASGSTFYLYAMGWYRQAPGKERELVAGITGSGGRTYYADSVKGRFTISRDNAKNTVYLQLNSLKPEDTAVYYCNKRRASWSPAGGTYNYWGQGSQVTVSS` please.
low polyreactivity

Please give the measured polyreactivity (PSR sort gate) for this sequence: `QVQLVESGGGLVQAGGSLRLSCAASGFTFGIYAMGWYRPATVKERELVAAISSSGGSTYYADSVKGRFTISRDNAKHTVYLQMNSLKPEDTAVYYCNAGALYRVYPYRGKLAYITYDSWGQGTQVTVSS`
high polyreactivity

Using the record for `QVQLVESGGGLVQAGGSLRLSCAASGLIFGWNAMGWYRQAPGKERELVAAISSGGSTNYADSVKGRFTISRDNAKNTVYLQMNRLKPEDNAVYYCATRNGYSGTYGYWGQGTQVTVSS` , report its polyreactivity (PSR sort gate).
low polyreactivity

* * *

Assay: yeast display, Sf9 membrane polyspecificity reagent, FACS + sequencing; frameworks hold sequencing errors
parameter: polyreactivity (PSR sort gate)

Recorded polyreactivity (PSR sort gate), per entry:
QVQLVESGGGLVQAGGSLRLSCAASGRTFPYNAMGWYRPAPGKERELVAAISGRGGSTYYADYVKGRFTISRDNAKNTVYLQMNSLKPEDTAVYYCAARLPWSYYRTQGYNYWGQGTQVTVSS :: high polyreactivity
QVQLVESGGGLVQAGGSLRLSCAASGRIFHYNAMGWYRQAPGKEREFVASISGSGGRTYYADSVKGRFTISRDNAKNTVYLQMNSLKPEDTAVYYCAASYYGHRYWGQGTQVTVSS :: low polyreactivity
QVQLVESGGGLVQAGGSLRLSCAASGSIFRGNAMGWYRQAPGKERELVAAISKSGGSTYYADSVKGRFTISRDNAKNTVYLQMNSLKPEDTAVYYRAARTTYLYGMYYWGQGTQVTVSS :: low polyreactivity
QVQLVESGGGLVQAGGSLRLSCAASGINLNNYPLGSYRQAPGKDRELVAAITSSGTRTYYADSVKGRFTISRDNAKINVYLQMNSLKPEDTAVYYCAAQPVYDLWGQGTQVTVSS :: high polyreactivity
QVQLVESGGGLVQAGGSLRLSWAASGSTFAWYAMGWYRQAPGKDRELVATISSGGSTYYADSVKGRFTISRDNAKNTVYLQMNSLKTEDTAVYYCAADYLTPWVYWFSYGLDYWGQGTQVTVSS :: low polyreactivity
QVQLVESGGGLVQAGGSLRLSCAASGRIFARYAMGWYRQAPGKQRELVAAITVSGDNTYYADSVKGRFTISRDNAKNTVYLQMNSLKPEDTAVYYCAVRAVLLFGFFDYDYWGQGTQLTVSS :: low polyreactivity

Which polyreactivity (PSR sort gate) reading was recorded for the sequence `QVHLVESGGCLVQAGGSLRLSCAASGITFGYYAMGWYRQAPGKERELVAAITTRGGSTSDADSVKGRFTISRDNAKNTVYFQMNSLKPEDNAVYYCAARWRQRKSVRYGQHGYDYWGQGTQVTVSS` ?
high polyreactivity

Which polyreactivity (PSR sort gate) reading was recorded for the sequence `QVQLVETGGGLVQAGGSLRLSCAASGITFASYAMGWYRHAPGKEREFVATITTGGTNTYYADSVKGRFTLSRDNAKKTVYLQMNSQKPEDTAVYYCAADSTPYVLSGNYDYWGQGTQVTVSS` ?
low polyreactivity

Using the record for `QVQLVESGGGLVQAGGSLRLSCAASGFIFTYNDMGWYRQAPGKERELVASITWDGGRTYYADAVKGRCTISRDNAKNTVYLQMISLKPEDTADYYCAKRLGGSPIQARGDYWGQGTQVTVSS` , report its polyreactivity (PSR sort gate).
low polyreactivity

Data request, read-out polyreactivity (PSR sort gate), for `QVQLVESGGGLVQAGGSLRLSCAASGSIFWPNAMGWYRQAPGKERELVASITRAGSTNYADSVKGRFTISRDNAQNTVYLQMNSLKPEDTAVYYCAAYFWGGYNYWGQGTQVTVSS`
low polyreactivity

Query: polyreactivity (PSR sort gate); subject: `QVQLVESGGGLLQAGRSLRLTCAASGRTFRAYAMGWYRQAPGKEMELVASISRRGGSTYYADSVKGRFTISRDNAKNSVYLQMNSLKPEDTAVSYCAASDKYLQYDYWGQGSQVTVSS`
high polyreactivity

Suppose we examine the sequence `QVQLVESGGGLVQAGGSLRLSCAASGSTFIPNAMGWYRQAPGKERELVAAISTGGSTNYADSVKGRFTISRDNAKNTVYLQMNSLKPEDTAVYYCNDRRGYFNPGRRFYYWGQGTQVTVSS` ; what polyreactivity (PSR sort gate) value has been reported?
low polyreactivity

What value of measured polyreactivity (PSR sort gate) is listed for `QVQLVESGGGLVQAGGSLRLSCAASGSIYTNAMGWYRQAPGKERELVAAISWSGGRTYYADSVKGRFTISRDNAKNTVYLQMNSLKPEDTAVYYCNTRGTRIASGHYYWGQGTQVTVSS` ?
high polyreactivity

Dear colleague, I am looking for the recorded polyreactivity (PSR sort gate) of the following sequence: `QVQLVESGGGLVQAGGSLRLSCAASGRTFYWYVMGWYRQAPGKERELVAAITQTGSSTYYADSVKGRFTISRDNAKNTVYLQMNSLKPEDTAVYYCADRLSRNHYEVDYWGQGTQVTVSS`
low polyreactivity
